molecular target: T1, ROR1 naturally expressed on human tumor cell lines (A549, Jeko-1, SW620, PA-1) (human, UniProt Q01973 30-937); experiment: FACS on PA-1 cells naturally expressing ROR1
T1 construct: whole, on cells; also called cells expressing ROR1
T1 sequence (Q01973 30-937): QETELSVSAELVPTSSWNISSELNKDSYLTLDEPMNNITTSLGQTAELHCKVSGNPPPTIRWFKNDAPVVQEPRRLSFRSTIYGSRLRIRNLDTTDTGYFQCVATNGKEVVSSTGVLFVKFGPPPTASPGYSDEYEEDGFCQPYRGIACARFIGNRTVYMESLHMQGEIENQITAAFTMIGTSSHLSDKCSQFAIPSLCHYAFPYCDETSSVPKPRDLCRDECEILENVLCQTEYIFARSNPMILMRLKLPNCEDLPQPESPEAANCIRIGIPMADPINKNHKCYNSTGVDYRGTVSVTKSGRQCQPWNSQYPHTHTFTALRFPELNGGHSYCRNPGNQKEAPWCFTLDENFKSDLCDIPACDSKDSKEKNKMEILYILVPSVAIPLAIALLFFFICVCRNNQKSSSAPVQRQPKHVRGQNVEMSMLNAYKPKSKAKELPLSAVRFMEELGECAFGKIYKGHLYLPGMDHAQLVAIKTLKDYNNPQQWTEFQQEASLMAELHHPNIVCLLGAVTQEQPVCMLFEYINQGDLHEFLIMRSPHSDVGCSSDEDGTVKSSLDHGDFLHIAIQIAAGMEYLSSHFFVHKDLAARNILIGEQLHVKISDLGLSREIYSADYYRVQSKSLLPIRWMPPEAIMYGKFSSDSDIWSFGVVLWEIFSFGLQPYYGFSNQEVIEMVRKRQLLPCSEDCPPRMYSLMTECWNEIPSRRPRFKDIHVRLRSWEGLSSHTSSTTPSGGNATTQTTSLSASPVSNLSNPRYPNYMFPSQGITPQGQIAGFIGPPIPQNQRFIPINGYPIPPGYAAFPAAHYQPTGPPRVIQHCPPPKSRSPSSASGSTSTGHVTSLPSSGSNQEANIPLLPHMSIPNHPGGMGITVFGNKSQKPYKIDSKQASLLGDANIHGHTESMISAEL
# Lookup of reported EC50 keyed by entry

# BINDER, EC50 [nM]
rows = [
    ("hz29H5D8-3.2 (antibody, human IgG1, kappa, V domains shown, Humanized, human IgG1/kappa) VH: QVQLVQSGAEVKKPGSSVKVSCKASGYTFTNYGISWVRQAPGQGLEWMGEIYPRSVNTYYSAKFKGRVTITADKSTSTAYMELSSLRSEDTAVYYCARHYYGSSLDYWGQGTLVTVSS VL: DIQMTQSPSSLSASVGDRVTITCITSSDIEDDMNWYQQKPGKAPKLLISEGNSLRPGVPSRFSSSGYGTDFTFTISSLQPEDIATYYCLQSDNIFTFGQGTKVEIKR", 0.087),
    ("hz29H5D8-2.1 (antibody, human IgG1, kappa, V domains shown, Humanized, human IgG1/kappa) VH: QVQLVQSGAEVKKPGSSVKVSCKASGYTFTNYGISWVRQAPGQGLEWMGEIYPRSVNTYYAQKFQGRVTITADKSTSTAYMELSSLRSEDTAVYYCARHYYGSSLDYWGQGTLVTVSS VL: DIQMTQSPSSLSASVGDRVTITCITSSDIEDDMNWYQQKPGKAPKLLIYEGNSLRPGVPSRFSSSGYGTDFTFTISSLQPEDIATYYCLQSDNIFTFGQGTKVEIKR", 0.126),
    ("UC-961 (antibody, V domains shown) VH: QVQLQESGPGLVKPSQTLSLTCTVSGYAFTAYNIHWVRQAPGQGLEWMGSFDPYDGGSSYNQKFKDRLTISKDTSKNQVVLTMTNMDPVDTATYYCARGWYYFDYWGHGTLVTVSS VL: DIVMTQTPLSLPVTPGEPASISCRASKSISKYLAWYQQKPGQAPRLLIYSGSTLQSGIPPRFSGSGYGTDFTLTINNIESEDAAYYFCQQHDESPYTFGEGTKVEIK", 0.173),
    ("hz29H5D8-3.1 (antibody, human IgG1, kappa, V domains shown, Humanized, human IgG1/kappa) VH: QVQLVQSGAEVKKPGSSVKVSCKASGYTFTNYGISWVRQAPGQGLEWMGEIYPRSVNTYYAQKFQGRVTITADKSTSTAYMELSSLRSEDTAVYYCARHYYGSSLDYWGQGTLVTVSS VL: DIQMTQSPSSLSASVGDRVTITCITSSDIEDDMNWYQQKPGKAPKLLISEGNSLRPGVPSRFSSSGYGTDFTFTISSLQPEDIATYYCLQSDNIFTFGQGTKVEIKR", 0.092),
]
